Hey, just so you know, these numbers are from ChEMBL document CHEMBL2057168.

- test-summary: Oral bioavailability in rhesus monkey
- Type: ADME, organism-based, Macaca mulatta
- assay-context: in vivo
quantity-kind: bioavailability (%)
Entry rule: numbers only, all in %.

Just so you know, measured bioavailability for `O=C(O)c1n[nH]c2c1C[C@H]1C[C@@H]21` came out at 39

====

- test-summary: Cmin in human at 150 mg, po TID administered on day 1 followed by 2-days wash out period after which dosing continued up to day 11 measured on day 4 at 8 hrs
- Type: ADME, organism-based
- assay-context: in vivo, read-out: Cmin
quantity-kind: concentration at 8 h (nM)
Entry rule: numbers only, all in nM.

Just so you know, measured concentration at 8 h for `O=C(O)c1n[nH]c2c1C[C@H]1C[C@@H]21` came out at 0.583

====

- test-summary: Blood clearance in mouse
- Assay type: ADME, organism-based
- assay-context: whole blood
Listed below: clearance values for each entry.
Entry rule: numbers only, all in mL/min/kg.

O=C(O)c1n[nH]c2c1C[C@H]1C[C@@H]21: 10

Kindly consider the entry below.
Just so you know, measured clearance for `C[C@@H]1[C@@H]2Cc3c(C(=O)O)n[nH]c3[C@H]12` came out at 35

====

- test-summary: Tmax in human at 50 mg, po BID administered on day 1 followed by 2-day wash out period after which dosing continued up to day 11 measured on day 4
- Assay type: ADME, organism-based
- assay-context: in vivo
quantity-kind: Tmax
Write the quantity with the unit trailing the number.

Just so you know, measured Tmax for `O=C(O)c1n[nH]c2c1C[C@H]1C[C@@H]21` came out at 1.25 h

====

- test-summary: Cmax in human at 150 mg, po BID administered on day 1 followed by 2-day wash out period after which dosing continued up to day 11 measured on day 11
- Type: ADME, organism-based
- Parameters: dose 150 mg, route oral
- assay-context: in vivo
quantity-kind: Cmax (nM)
Entry rule: numbers only, all in nM.

Just so you know, measured Cmax for `O=C(O)c1n[nH]c2c1C[C@H]1C[C@@H]21` came out at 27.7

====

- test-summary: Plasma clearance in rhesus monkey
- Assay type: ADME, organism-based, Macaca mulatta
quantity-kind: clearance (mL/min/kg)
Entry rule: numbers only, all in mL/min/kg.

Just so you know, measured clearance for `O=C(O)c1n[nH]c2c1C[C@H]1C[C@@H]21` came out at 5.1

====

- test-summary: Cmin in human at 50 mg, po BID administered on day 1 followed by 2-day wash out period after which dosing continued up to day 11 measured on day 4 at 12 hrs
- Assay type: ADME, organism-based
- assay-context: in vivo, read-out: Cmin
quantity-kind: concentration at 12 h (nM)
Entry rule: numbers only, all in nM.

Just so you know, measured concentration at 12 h for `O=C(O)c1n[nH]c2c1C[C@H]1C[C@@H]21` came out at 0.023

====

- test-summary: Volume of distribution in dog
- Assay type: ADME, organism-based, Canis lupus familiaris
- assay-context: in vivo
quantity-kind: Vd
Write the quantity with the unit trailing the number.

O=C(O)c1n[nH]c2c1C[C@H]1C[C@@H]21: 0.41 L/kg

Just so you know, measured Vd for `C[C@@H]1[C@@H]2Cc3c(C(=O)O)n[nH]c3[C@H]12` came out at 0.22 L/kg

====

Listed below: Vd values for each entry.
- test-summary: Volume of distribution in mouse
- Type: ADME, organism-based
- assay-context: in vivo
Entry rule: numbers only, all in L/kg.

O=C(O)c1n[nH]c2c1C[C@H]1C[C@@H]21: 0.75

Kindly consider the entry below.
Just so you know, measured Vd for `C[C@@H]1[C@@H]2Cc3c(C(=O)O)n[nH]c3[C@H]12` came out at 0.61
